// provenance: the supplement of paper PMC11246515

# total protein half-life in vivo listing for each entry below
assayName: total protein half-life in vivo (active degradation + dilution); higher = more stable protein
conditionInfo: wild type E. coli NCM3722; growth: C-lim chemostat; doubling time 3 h
readoutLabel: total protein half-life in vivo (h)

[
  {
    "recordSequence": "MVKVYAPASSANMSVGFDVLGAAVTPVDGALLGDVVTVEAAETFSLNNLGRFADKLPSEPRENIVYQCWERFCQELGKQIPVAMTLEKNMPIGSGLGSSACSVVAALMAMNEHCGKPLNDTRLLALMGELEGRISGSIHYDNVAPCFLGGMQLMIEENDIISQQVPGFDEWLWVLAYPGIKVSTAEARAILPAQYRRQDCIAHGRHLAGFIHACYSRQPELAAKLMKDVIAEPYRERLLPGFRQARQAVAEIGAVASGISGSGPTLFALCDKPETAQRVADWLGKNYLQNQEGFVHICRLDTAGARVLEN",
    "readoutLabel": "total protein half-life in vivo",
    "unit": "h",
    "resultNumber": 2.73
  },
  {
    "recordSequence": "MIKSALLVLEDGTQFHGRAIGATGSAVGEVVFNTSMTGYQEILTDPSYSRQIVTLTYPHIGNVGTNDADEESSQVHAQGLVIRDLPLIASNFRNTEDLSSYLKRHNIVAIADIDTRKLTRLLREKGAQNGCIIAGDNPDAALALEKARAFPGLNGMDLAKEVTTAEAYSWTQGSWTLTGGLPEAKKEDELPFHVVAYDFGAKRNILRMLVDRGCRLTIVPAQTSAEDVLKMNPDGIFLSNGPGDPAPCDYAITAIQKFLETDIPVFGICLGHQLLALASGAKTVKMKFGHHGGNHPVKDVEKNVVMITAQNHGFAVDEATLPANLRVTHKSLFDGTLQGIHRTDKPAFSFQGHPEASPGPHDAAPLFDHFIELIEQYRKTAK [P0A6F1]",
    "readoutLabel": "total protein half-life in vivo",
    "unit": "h",
    "resultNumber": 3.18
  }
]
